protocol.description: Mixed type inhibition of Mycobacterium tuberculosis InhA assessed as effect on NADH oxidation incubated for 10 mins by spectrophotometry
result.type: Ki (µM)
One number for each entry, in µM.

Input line: I have this compound here, Cc1cc2ncn(Cc3ccc(Cl)c(Cl)c3)c2cc1C , and I need its recorded Ki.
Output line: 4
